Provide the recorded MIC C. diversus for the entries that follow.
- Tested on: Citrobacter diversus
- run.description: MIC against Gram-negative bacteria: Citrobacter diversus
- Assay type: cell-based
- protocol.conditions: 10 h cultivation at 37° C., 5×10^5 CFU/mL, two-fold serial dilution
Give bare numbers, in µg/mL.

{"columns": ["substance", "MIC C. diversus, µg/mL"],
 "data": [
  ["PRT1105 (EIDECWSQPCLNGATCQDALGAYFCDCAPGFLGDHCE; listed as Homo sapiens)", 12.5],
  ["PRT1187 (NTNDCNPLPCYNGGICVDGVNWFRCECAPGFAGPDCR; listed as Homo sapiens)", 12.5],
  ["PRT1157 (DVSEFSLVPCQNGTDCIKISNDVMCICSPIFTDLLCK; listed as Homo sapiens)", 50],
  ["PRT1144 (NANDCLSNPCLHGRCTELINEYPCSCDADGTSTQCK; listed as Homo sapiens)", 25],
  ["PRT1183 (NIDDCLGQPCRNGGTCIDEVDAFRCFCPSGWEGELCD; listed as Homo sapiens)", 12.5]
]}

Need MIC C. diversus for each of these substances.
1. PRT1089 (ANPCCSHPCQNRGVCMSVGFDQYKCDCTRTGFYGENCS; listed as Homo sapiens)
2. PRT1140 (DVKDCLFLSCQDYGDCEDMVNNFRCICRPGFSGSLCE; listed as Homo sapiens)
3. PRT1071 (ELDQCWEHCRNGGTCAASPSGMPTCRCPTGFTGPKCT; listed as Homo sapiens)
4. PRT1108 (DLNECNSNPCQSNGECVELSSEKQYGRITGLPSSFSYHEASGYVCICQPGFTGIHCE; listed as Homo sapiens)
5. PRT1049 (WGENCAQTCQCHHGGTCHPQDGSCICPLGWTGHHCL; listed as Homo sapiens)

RESULT:
1. 25
2. 12.5
3. 12.5
4. 12.5
5. 12.5
